Quick list: melting point per entry.
Respond with the bare value in °C.

Molecule	Readout Name	Val
CCNC(=O)c1ccc(-n2nnc(C(=O)NC3CC3)c2CN2CCCC2)cc1 [Example 127]	melting point	164
CCNC(=O)c1ccc(-n2nnc(C(=O)NC3CC3)c2COCc2ccccc2)c(OCc2ccccc2)c1 [Example 316]	melting point	132
CCNC(=O)c1ccc(-n2nnc(C(=O)NC3CC3)c2CSC)cc1 [Example 129]	melting point	192
CCCc1c(C(=O)NC2CC2)nnn1-c1ccc(C(=O)NCC)cc1O [Example 315]	melting point	203
CCNC(=O)c1ccc(-n2nnc(C(=O)NC3CC3)c2CO)c(O)c1 [Example 317]	melting point	185
CCNC(=O)c1ccc(-n2nnc(C(=O)NC3CC3)c2CNCc2ccccc2)cc1 [Example 126]	melting point	153
CCNC(=O)c1ccc(-n2nnc(C(=O)NC3CC3)c2CCO)cc1 [Example 114]	melting point	156
CCNC(=O)c1ccc(-n2nnc(C(=O)NC3CC3)c2CCCCCF)cc1 [Example 111]	melting point	150.3

# ---- query molecule ----
[Q] Item C=Cc1c(C(=O)NC2CC2)nnn1-c1ccc(C(=O)NCC)cc1 [Example 115] : provide melting point
[A] 162

---

Target: human PAR-1 (Homo sapiens, UniProt P25116)
Construct: expressed in transfected cells; host or cells: CHO-K1 (transformant flag/trn/CHO-K1)
Sequence (P25116 22-425): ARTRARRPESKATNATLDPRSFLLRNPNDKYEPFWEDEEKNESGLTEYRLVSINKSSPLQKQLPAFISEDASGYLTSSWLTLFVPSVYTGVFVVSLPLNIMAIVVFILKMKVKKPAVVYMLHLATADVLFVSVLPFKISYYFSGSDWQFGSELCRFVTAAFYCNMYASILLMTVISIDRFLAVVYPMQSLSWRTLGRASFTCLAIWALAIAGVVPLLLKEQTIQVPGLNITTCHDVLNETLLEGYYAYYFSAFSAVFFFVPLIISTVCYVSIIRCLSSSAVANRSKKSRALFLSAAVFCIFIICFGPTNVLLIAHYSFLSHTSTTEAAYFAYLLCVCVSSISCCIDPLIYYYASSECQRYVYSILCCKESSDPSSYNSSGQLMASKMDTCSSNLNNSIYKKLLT
Test: Evaluation of PAR-1 antagonistic action by intracellular calcium concentration variation assay (FLIPR)
Type: cell-based
Conditions: human PAR-1-expressing CHO cells, agonist peptide SFLLRN-NH2 final concentration 0.3 nM, Fluo-3AM
Readout Name: IC50 (nM)
Respond with the bare value in nM.

Molecule	Measured Target	IC50, nM
CCCc1c(C(=O)NC2CC2)nnn1-c1ccc(NC(=O)NCC)cc1	human PAR-1 (Homo sapiens, UniProt P25116)	370
CCCCc1c(C(=O)NC2CC2)nnn1-c1ccc(C(=O)NCC)cc1	human PAR-1 (Homo sapiens, UniProt P25116)	2400
CCCc1c(C(=O)NCCc2c[nH]c3ccc(OC)cc23)nnn1-c1ccc(C(=O)NCC)cc1	human PAR-1 (Homo sapiens, UniProt P25116)	280
CCNC(=O)c1ccc(-n2nnc(C(=O)NC3CC3)c2CSC)cc1	human PAR-1 (Homo sapiens, UniProt P25116)	740
CCCc1c(C(=O)NCc2ccccn2)nnn1-c1ccc(C(=O)NCC)cc1	human PAR-1 (Homo sapiens, UniProt P25116)	1300
CCCc1c(C(=O)NC2CC2)nnn1-c1ccc(NC(=O)COC)cc1	human PAR-1 (Homo sapiens, UniProt P25116)	750
CCNC(=O)c1ccc(-n2nnc(C(=O)NC3CC3)c2-c2ccccc2)cc1	human PAR-1 (Homo sapiens, UniProt P25116)	2700
CCCc1c(C(=O)NC2CC2)nnn1-c1ccc(NC(=O)C(C)C)cc1	human PAR-1 (Homo sapiens, UniProt P25116)	520
CCNC(=O)c1ccc(-n2nnc(C(=O)NC3CC3)c2CCCO)cc1	human PAR-1 (Homo sapiens, UniProt P25116)	3100
CCCc1c(C(=O)NC2CC2)nnn1-c1ccc(C(=O)NCC)cc1	human PAR-1 (Homo sapiens, UniProt P25116)	1500

[Q] Item "CCCNC(=O)c1ccc(-n2nnc(C(=O)NC3CC3)c2CCC)cc1" : provide IC50
[A] 3600

[Q] Item "CCNC(=O)c1ccc(-n2nnc(C(=O)NC3CC3)c2CCCCCc2ccccc2)cc1" : provide IC50
[A] 820

[Q] Item "CCNC(=O)c1ccc(-n2nnc(C(=O)NC3CC3)c2CCCOc2ccc(OC(F)(F)F)cc2)cc1" : provide IC50
[A] 330

[Q] Item "CCCc1c(C(=O)NC2CC2)nnn1-c1ccc(NC(=O)C(F)(F)F)cc1" : provide IC50
[A] 250

[Q] Item "CCNC(=O)c1ccc(-n2nnc(C(=O)NC3CC3)c2COc2ccc(Br)cc2)cc1" : provide IC50
[A] 750

[Q] Item "C/C=C/c1c(C(=O)NC2CC2)nnn1-c1ccc(C(=O)NCC(F)(F)F)cc1" : provide IC50
[A] 1400

[Q] Item "CCNC(=O)c1ccc(-n2cc(C(=O)NC3CC3)nn2)c(OCCCc2ccccc2)c1" : provide IC50
[A] 270

[Q] Item "CCCc1c(C(=O)NC2CC2)nnn1-c1ccc(NC(=O)CC(F)(F)F)cc1" : provide IC50
[A] 94
